assay_readout: pIC50
# reply with the number alone; pIC50 is -log10 of concentration in mol/L

Field pIC50 (Histone deacetylase 8 (Homo sapiens, UniProt Q9BY41)), entry `Cc1sc2c(c1C)C(c1ccc(Cl)cc1)=N[C@@H](CC(=O)Nc1ccc(C(=O)NO)cc1)c1nnc(C)n1-2` : 7.68

###

target: LSD1/CoREST complex (Homo sapiens, UniProt O60341); test: Inhibition of human N-terminal GST-tagged LSD1 expressed in Escherichia coli using ARTK (Me)-2QTARKSTGGKAPRKQLA as substrate/FLAG-tagged CoREST transfected in HEK293F cells incubated for 5 mins
assay_readout: pIC50
Conceptually, pIC50 converts a concentration in mol/L into minus its log10.

Form field, pIC50 with LSD1/CoREST complex (Homo sapiens, UniProt O60341), item `Nc1ccccc1NC(=O)c1ccc(CCCC(=O)Nc2ccc([C@@H]3C[C@H]3N)cc2)cc1` : 6.48
